Tested on: U2OS
TEST SUMMARY: Multiplex assay against U2OS
Format: toxicity, cell-based
CONDITION SUMMARY: human, 12 h, 10 µM, compound concentration 10 uM, replicate 1
Non-standard residues stand in square brackets, D forms with d. Residues, ends and D or L forms follow the SMILES beside them.
Labelling field: enter 1 (yes) if recorded Population Apoptotic (%) is less than 70%. Enter 0 (no) if it equals or exceeds that cut-off.

• CC(C)C[C@H](CO)Nc1nc(S[C@@H](C)c2ccccc2)nc2nc(N)sc12 [AZD-8797] = 1 (yes)
• CCCCCCNC(=O)Nc1ccc(S(=O)(=O)Nc2ccc(CCNC[C@H](O)COc3ccc(O)cc3)cc2)cc1 [L-755507] = 1 (yes)
• O=C(O)CCC/C=C\CC1C(O)CC(O)C1/C=C/C(O)COc1cccc(Cl)c1 (configuration not stated) [CLOPROSTENOL] = 0 (no)
• Cc1sc2c(c1C)C(c1ccc(Cl)cc1)=N[C@H](CC(=O)OC(C)(C)C)c1nnc(C)n1-2 = 1 (yes)
• CC(C)C[C@@H]1NC(=O)[C@@H](C(C)C)NC(=O)[C@@H]2CCCN2C(=O)[C@@H](CC(=O)O)NC(=O)[C@@H](Cc2c[nH]c3ccccc23)NC1=O [BQ-123] (cyclo(L[dW][dD]P[dV])) = 0 (no)
